Below are IC50 values measured for Acetylcholinesterase (Homo sapiens, UniProt P22303).
Provide only the numeric value, understood in nM.

Worked set:
{"compound": "O=C(c1ccc(O)c(O)c1)c1ccc(O)cc1Br", "IC50 (nM)": 4.71}
{"compound": "COc1ccc(OC)c(Br)c1 [2-bromo-1,4-dimethoxybenzene (14)]", "IC50 (nM)": 7.21}
{"compound": "O=C(c1ccc(O)cc1)c1cc(Br)c(O)cc1O", "IC50 (nM)": 4.81}
{"compound": "COc1ccc(C(=O)c2cc(Br)c(OC)cc2OC)cc1", "IC50 (nM)": 4.05}
{"compound": "O=C(c1ccc(O)cc1)c1cc(O)c(Br)cc1O", "IC50 (nM)": 4.58}
{"compound": "COc1ccc(C(=O)c2ccc(OC)cc2OC)cc1", "IC50 (nM)": 5.25}
{"compound": "COc1cc(C(=O)c2ccccc2)c(OC)cc1Br", "IC50 (nM)": 4.68}
{"compound": "COc1ccc(C(=O)c2cccc(OC)c2OC)c(Br)c1", "IC50 (nM)": 4.2}
{"compound": "COc1ccc(C(=O)c2cc(OC)c(Br)cc2OC)cc1", "IC50 (nM)": 4.22}
{"compound": "O=C(c1ccccc1)c1cc(O)c(Br)cc1O", "IC50 (nM)": 4.88}

Let me check: `O=C(c1ccc(O)cc1Br)c1cccc(O)c1O` , system Acetylcholinesterase (Homo sapiens, UniProt P22303), measured IC50 is 4.84

Let me check: `COc1ccc(C(=O)c2ccc(OC)c(OC)c2)c(Br)c1` , system Acetylcholinesterase (Homo sapiens, UniProt P22303), measured IC50 is 4.41

====

Below are pKi values measured for Acetylcholinesterase (Homo sapiens).
pKi field: float, defined as -log10 of concentration (mol/L).

Worked set:
{"smi": "COc1ccc(C(=O)c2cc(OC)c(Br)cc2OC)cc1", "pKi": 8.42}
{"smi": "O=C(c1ccc(O)c(O)c1)c1ccc(O)cc1Br", "pKi": 8.39}
{"smi": "O=C(c1ccc(O)cc1)c1cc(Br)c(O)cc1O", "pKi": 8.24}

Per the records, this molecule ( `COc1ccc(C(=O)c2ccc(OC)c(OC)c2)c(Br)c1` ) has pKi equal to 8.45

Per the records, this molecule ( `COc1cc(C(=O)c2ccccc2)c(OC)cc1Br` ) has pKi equal to 8.28

====

Below are pKi values measured for Acetylcholinesterase (Homo sapiens, UniProt P22303).
pKi field: float, defined as -log10 of concentration (mol/L).

Worked set:
{"molecule": "O=C(c1ccccc1)c1cc(O)c(Br)cc1O", "experimental-system": "Acetylcholinesterase (Homo sapiens, UniProt P22303)", "val": 8.49}
{"molecule": "COc1ccc(C(=O)c2cc(Br)c(OC)cc2OC)cc1", "experimental-system": "Acetylcholinesterase (Homo sapiens, UniProt P22303)", "val": 8.44}
{"molecule": "COc1ccc(OC)c(Br)c1 [2-bromo-1,4-dimethoxybenzene (14)]", "experimental-system": "Acetylcholinesterase (Homo sapiens, UniProt P22303)", "val": 8.37}
{"molecule": "COc1ccc(C(=O)c2ccc(OC)cc2OC)cc1", "experimental-system": "Acetylcholinesterase (Homo sapiens, UniProt P22303)", "val": 8.23}
{"molecule": "O=C(c1ccc(O)cc1Br)c1cccc(O)c1O", "experimental-system": "Acetylcholinesterase (Homo sapiens, UniProt P22303)", "val": 8.43}
{"molecule": "COc1ccc(C(=O)c2cccc(OC)c2OC)c(Br)c1", "experimental-system": "Acetylcholinesterase (Homo sapiens, UniProt P22303)", "val": 8.36}

In the following, a different molecule is considered.
Let me check: `O=C(c1ccc(O)cc1)c1cc(O)c(Br)cc1O` , system Acetylcholinesterase (Homo sapiens, UniProt P22303), measured pKi is 8.56
